All figures here come from ChEMBL document CHEMBL1201861.

Test system: NCI-H720;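 also: growth inhibition of human NCI-H720 cells determined by a cell viability assay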
measurement.protocol: cells
Assay type: functional, cell-based
condition.set: Homo sapiens
Description: SANGER: Inhibition of human NCI-H720 cell growth in a cell viability assay.
pIC50: −log10 of the molar value.
measured.metric: pIC50

[in] Tell me pIC50 reported for "CCOc1nc(NC(=O)Cc2cc(OC)ccc2OC)cc(N)c1C#N"
[out] < 5.00

[in] Tell me pIC50 reported for "COc1ccc(C2=N[C@@H](c3ccc(Cl)cc3)[C@@H](c3ccc(Cl)cc3)N2C(=O)N2CCNC(=O)C2)c(OC(C)C)c1"
[out] < 5.10

[in] Tell me pIC50 reported for "CNC(=O)c1cc(Oc2ccc(NC(=O)Nc3ccc(Cl)c(C(F)(F)F)c3)cc2)ccn1"
[out] < 5.40

[in] Tell me pIC50 reported for "O=C(c1cc(Cc2n[nH]c(=O)c3ccccc23)ccc1F)N1CCN(C(=O)C2CC2)CC1"
[out] 5.66

[in] Tell me pIC50 reported for "C[C@]1(O)C[C@@H](c2nc(-c3ccc4ccc(-c5ccccc5)nc4c3)c3c(N)nccn32)C1"
[out] < 5.59

[in] Tell me pIC50 reported for "CC(=O)O[C@@]12CO[C@@H]1C[C@H](O)[C@@]1(C)C(=O)[C@H](O)C3=C(C)[C@@H](OC(=O)[C@H](O)[C@@H](NC(=O)OC(C)(C)C)c4ccccc4)C[C@@](O)([C@@H](OC(=O)c4ccccc4)[C@H]21)C3(C)C"
[out] 9.24

[in] Tell me pIC50 reported for "CO[C@H]1C[C@@H]2CC[C@@H](C)[C@@](O)(O2)C(=O)C(=O)N2CCCC[C@H]2C(=O)O[C@H]([C@H](C)C[C@@H]2CC[C@@H](O)[C@H](OC)C2)CC(=O)[C@H](C)/C=C(\C)[C@@H](O)[C@@H](OC)C(=O)[C@H](C)C[C@H](C)/C=C/C=C/C=C/1C"
[out] 7.59

[in] Tell me pIC50 reported for "Cn1cncc1[C@@](N)(c1ccc(Cl)cc1)c1ccc2c(c1)c(-c1cccc(Cl)c1)cc(=O)n2C"
[out] < 4.80

* * *

Test system: BHY
measurement.protocol: cells
Format: functional, cell-based, Homo sapiens
condition.set: Homo sapiens, BHY
Description: SANGER: Inhibition of human BHY cell growth in a cell viability assay.
measured.metric: pIC50
// pIC50: -log10(molar conc.)

[in] Provide pIC50, tested on BHY, for "COC(=O)CNC(=O)C(=O)OC" .
[out] 3.33

[in] Provide pIC50, tested on BHY, for CC(=O)O[C@@]12CO[C@@H]1C[C@H](O)[C@@]1(C)C(=O)[C@H](O)C3=C(C)[C@@H](OC(=O)[C@H](O)[C@@H](NC(=O)OC(C)(C)C)c4ccccc4)C[C@@](O)([C@@H](OC(=O)c4ccccc4)[C@H]21)C3(C)C [DOCETAXEL] .
[out] 8.67

[in] Provide pIC50, tested on BHY, for CN(C)C/C=C/C(=O)Nc1cc2c(Nc3ccc(F)c(Cl)c3)ncnc2cc1O[C@H]1CCOC1 [AFATINIB] .
[out] 6.54

[in] Provide pIC50, tested on BHY, for Nc1ccn([C@@H]2O[C@H](CO)[C@@H](O)[C@@H]2O)c(=O)n1 [CYTARABINE] .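 Also: cell growth inhibition read out by a viability assay.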
[out] 6.05

* * *

Assign IC50 to each entry below.
Tested on: TE-6
measurement.protocol: cells
Assay type: functional, cell-based, Homo sapiens
condition.set: Homo sapiens, TE-6
Description: SANGER: Inhibition of human TE-6 cell growth in a cell viability assay.

[in] Provide IC50, tested on TE-6, for CN(Cc1cnc2nc(N)nc(N)c2n1)c1ccc(C(=O)N[C@@H](CCC(=O)O)C(=O)O)cc1 [METHOTREXATE] .
[out] > 0.2 µM

[in] Provide IC50, tested on TE-6, for C=C1C(=O)O[C@@H]2C3O[C@]3(C)CC/C=C(\C)CC[C@@H]12 (some centres undefined) .
[out] > 5 µM

[in] Provide IC50, tested on TE-6, for "C[C@]1(O)C[C@@H](c2nc(-c3ccc4ccc(-c5ccccc5)nc4c3)c3c(N)nccn32)C1" .
[out] > 2.56 µM

[in] Provide IC50, tested on TE-6, for "CCOc1nc(NC(=O)Cc2cc(OC)ccc2OC)cc(N)c1C#N" .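 Also: growth inhibition of TE-6 cells, read out with a cell viability assay.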
[out] > 10 µM
